So I've got a bunch of molecules here, and I need their chromatographic logP values.
assay: logP by HPLC on a C18 phase inversion column, EEC Directive 79/831 Annex V.A8, method a) (Agilent 1100, 10-95% acetonitrile in 4.25 min); format: physicochemical; conditions: HPLC phase inversion (reversed-phase) C18 column, HPLC on C18 phase inversion column, method a); read-out: logP
The answer should be written as a number, with no unit following it.

What value of chromatographic logP has been recorded for this entry: Cn1nc(C(F)(F)C(F)(F)F)c(C(F)(F)F)c1C(=O)Nc1ccc(Br)c(C(=O)N[C@@H]2C[C@@H]2F)n1
3.29

What value of chromatographic logP has been recorded for this entry: Cn1nc(C(F)(F)C(F)(F)F)c(C(F)(F)F)c1C(=O)Nc1ccnc(C(=O)NC2CC2(F)F)c1 (stereo not shown)
3.59

What value of chromatographic logP has been recorded for this entry: O=C(NCC(F)(F)F)c1cc(NC(=O)c2[nH]nc(C(F)(F)C(F)(F)F)c2C(F)(F)F)ccc1Cl
3.26

What value of chromatographic logP has been recorded for this entry: Cn1nc(C(F)(F)C(F)(F)F)c(C(F)(F)F)c1C(=O)Nc1cc(C(=O)N[C@@H]2C[C@@H]2F)c(Br)cn1
3.19

###

test: physchem; assay type: physicochemical
ENDPOINT: logP

What value of logP has been recorded for this entry: Cn1nc(-c2ccc(F)cc2)c(Br)c1C(=O)Nc1ccc(Cl)c(C(=O)NC2CC2)c1 [Ik-248]
3.04^a)

What value of logP has been recorded for this entry: Cn1nc(C(F)(F)C(F)(F)F)c(C(F)(F)F)c1C(=O)Nc1cc(Cl)c(I)c(C(=O)NCC(F)(F)F)c1 [Ik-206]
4.18^a)

What value of logP has been recorded for this entry: Cn1nc(-c2ccc(Cl)cc2Cl)c(Br)c1C(=O)Nc1ccc(Cl)c(C(=O)NCC(F)(F)F)c1 [Ik-254]
4.04^a)

###

assay: logP by HPLC on a C18 phase inversion column, EEC Directive 79/831 Annex V.A8, method a) (Agilent 1100, 10-95% acetonitrile in 4.25 min); assay type: physicochemical; details: HPLC phase inversion (reversed-phase) C18 column, HPLC method a), eluent acetonitrile/water with formic acid; read-out: logP
Where chromatographic logP equals or exceeds 3, the correct label is Criterion met; where it does not, the label is Criterion not met.

Is the recorded value of chromatographic logP equal to or greater than 3 for this molecule? Cn1nc(C(F)(F)C(F)(F)F)c(C(F)(F)F)c1C(=O)Nc1ccnc(C(=O)NC2CC2(F)F)c1 (stereo not shown)
Criterion met

Is the recorded value of chromatographic logP equal to or greater than 3 for this molecule? Cc1nc(C(F)(F)C(F)(F)F)nc(C)c1C(=O)O
Criterion not met

Is the recorded value of chromatographic logP equal to or greater than 3 for this molecule? Cc1nc(C(=O)Nc2ccc(Cl)c(C(=O)O)c2)c(C(F)(F)F)c(C(F)(F)C(F)(F)F)n1
Criterion met

Is the recorded value of chromatographic logP equal to or greater than 3 for this molecule? COC(=O)c1cc(N)ncc1Cl [methyl 2-amino-5-chloroisonicotinate]
Criterion not met

Is the recorded value of chromatographic logP equal to or greater than 3 for this molecule? Cn1nc(C(F)(F)C(F)(F)F)c(C(F)(F)F)c1C(=O)Nc1cc(C(=O)O)c(Br)cn1
Criterion not met

Is the recorded value of chromatographic logP equal to or greater than 3 for this molecule? Cn1nc(C(F)(F)C(F)(F)F)c(C(F)(F)F)c1C(=O)Nc1cnc(Cl)c(C(=O)O)c1
Criterion not met

Is the recorded value of chromatographic logP equal to or greater than 3 for this molecule? Cc1nc(C(F)(F)C(F)(F)F)ncc1C(=O)O
Criterion not met

Is the recorded value of chromatographic logP equal to or greater than 3 for this molecule? CCn1nc(C(F)(F)C(F)(F)F)c(C(F)(F)F)c1C(=O)O
Criterion not met

Is the recorded value of chromatographic logP equal to or greater than 3 for this molecule? Cn1nc(C(F)(F)C(F)(F)F)c(C(F)(F)F)c1C(=O)Nc1ccc(Cl)c(C(=O)O)c1
Criterion met

Is the recorded value of chromatographic logP equal to or greater than 3 for this molecule? O=C(NC1CC1)c1cc(NC(=O)c2ncc(Cl)cc2C(F)(F)F)ccc1Cl
Criterion not met

Is the recorded value of chromatographic logP equal to or greater than 3 for this molecule? COC(=O)c1cc(NC(=O)c2c(C(F)(F)F)c(C(F)(F)C(F)(F)F)nn2C)ccc1Cl
Criterion met

Is the recorded value of chromatographic logP equal to or greater than 3 for this molecule? Cn1nc(C(F)(F)F)c(C(F)(F)F)c1C(=O)Nc1ccc(Cl)c(C(=O)NCC(F)(F)F)c1
Criterion met

Is the recorded value of chromatographic logP equal to or greater than 3 for this molecule? Cn1nc(C(F)(F)OC(F)(F)OC(F)(F)F)c(Br)c1C(=O)O
Criterion met

Is the recorded value of chromatographic logP equal to or greater than 3 for this molecule? Cn1nc(C(O)C2CC2)c(C(F)(F)F)c1C(=O)Nc1ccc(Cl)c(C(=O)NC2CC2)c1 (stereo not shown)
Criterion not met

Is the recorded value of chromatographic logP equal to or greater than 3 for this molecule? Cn1ccc(C(F)(Cl)C(F)(F)F)n1 (stereo not shown)
Criterion not met

Is the recorded value of chromatographic logP equal to or greater than 3 for this molecule? O=C(NC1CC1)c1cc(NC(=O)c2cnc(Cl)cc2C(F)(F)F)ccc1Cl
Criterion not met

Is the recorded value of chromatographic logP equal to or greater than 3 for this molecule? O=C(O)c1[nH]nc(C(F)(F)C(F)(F)F)c1C(F)(F)F
Criterion not met

Is the recorded value of chromatographic logP equal to or greater than 3 for this molecule? Cn1nc(C(F)(F)C(F)(F)F)c(C(F)(F)F)c1C(=O)Nc1ccc(Br)c(C(=O)N[C@@H]2C[C@@H]2F)n1
Criterion met

Is the recorded value of chromatographic logP equal to or greater than 3 for this molecule? Cn1nc(C(F)(F)C(F)(F)F)c(Br)c1C(=O)O
Criterion met

Is the recorded value of chromatographic logP equal to or greater than 3 for this molecule? O=C(O)c1cnc(C(F)(F)C(F)(F)F)nc1C(F)F
Criterion not met

Is the recorded value of chromatographic logP equal to or greater than 3 for this molecule? Cn1ccc(C(F)(F)OC(F)(F)OC(F)(F)F)n1
Criterion met

Is the recorded value of chromatographic logP equal to or greater than 3 for this molecule? C=Cc1c(C(F)(F)C(F)(F)F)nn(C)c1C(=O)Nc1ccc(Cl)c(C(=O)NC2CC2)c1
Criterion met

Is the recorded value of chromatographic logP equal to or greater than 3 for this molecule? COC(=O)c1cc(N(C(=O)c2c(C(F)(F)F)c(C(F)(F)C(F)(F)F)nn2C)C(=O)c2c(C(F)(F)F)c(C(F)(F)C(F)(F)F)nn2C)ccc1Cl
Criterion met

Is the recorded value of chromatographic logP equal to or greater than 3 for this molecule? Cn1ccc(C(F)(F)C(F)(F)F)n1
Criterion not met

Is the recorded value of chromatographic logP equal to or greater than 3 for this molecule? O=C(NC1CC1)c1cc(NC(=O)c2ncc(OCC(F)(F)F)cc2C(F)(F)F)ccc1Cl
Criterion not met

Is the recorded value of chromatographic logP equal to or greater than 3 for this molecule? COC(=O)c1cc(NC(=O)c2c(C(F)(F)F)c(C(F)(F)C(F)(F)F)nn2C)ncc1Br
Criterion met

Is the recorded value of chromatographic logP equal to or greater than 3 for this molecule? Cn1nc(C(F)C2CC2)c(C(F)(F)F)c1C(=O)Nc1ccc(Cl)c(C(=O)NC2CC2)c1 (stereo not shown)
Criterion not met

Is the recorded value of chromatographic logP equal to or greater than 3 for this molecule? Cn1nc(C(F)(F)C(F)(F)F)c(C(F)(F)F)c1C(=O)Nc1ccc(Cl)c(C(=O)NC2CC2)c1
Criterion met

Is the recorded value of chromatographic logP equal to or greater than 3 for this molecule? Cn1nc(C(F)(F)C(F)(F)F)cc1C(=O)O
Criterion not met

Is the recorded value of chromatographic logP equal to or greater than 3 for this molecule? CCOC(=O)c1c(C)nc(C(F)(F)C(F)(F)F)nc1C
Criterion met

Is the recorded value of chromatographic logP equal to or greater than 3 for this molecule? CCOC(=O)c1cc(NC(=O)c2nc(C)nc(C(F)(F)C(F)(F)F)c2C(F)(F)F)ccc1Cl
Criterion met

Is the recorded value of chromatographic logP equal to or greater than 3 for this molecule? COC(=O)c1c(Cl)cnc(N)c1Cl [methyl 2-amino-3,5-dichloroisonicotinate]
Criterion not met

Is the recorded value of chromatographic logP equal to or greater than 3 for this molecule? O=C(NCC(F)(F)F)c1cc(NC(=O)c2[nH]nc(C(F)(F)C(F)(F)F)c2C(F)(F)F)ccc1Cl
Criterion met

###

assay: physchem; assay type: physicochemical
ENDPOINT: logP

What value of logP has been recorded for this entry: Cn1nc(C(F)(F)C(F)(F)F)c(C(F)(F)F)c1C(=O)Nc1cc(C(=O)NC2CC2)c(F)cc1Cl
3.53^a)

What value of logP has been recorded for this entry: O=C(NC1CC1)c1cc(NC(=O)c2cnc(OCC(F)(F)C(F)(F)F)cc2C(F)(F)F)ccc1Cl
3.44^a)

What value of logP has been recorded for this entry: Cn1nc(C(F)(F)C(F)(F)C(F)(F)C(F)(F)F)c(I)c1C(=O)Nc1ccc(Cl)c(C(=O)NC2CC2)c1
3.90^a)

What value of logP has been recorded for this entry: Cn1nc(C(F)(F)F)c(Br)c1C(=O)Nc1ccc(Cl)c(C(=O)NC2CC2)c1
2.75^a)
